What IC50 was measured for each of the following?
target: 6His-Tev-LRRK2 (1326-2527) (Homo sapiens, UniProt Q5S007)
Construct: A LRRK2 cDNA encoding residues 1326-2527 was received from Dundee University; made in house; host or cells: Spodoptera frugiperda (Sf9) insect cells, baculovirus
Sequence (Q5S007 1326-2527): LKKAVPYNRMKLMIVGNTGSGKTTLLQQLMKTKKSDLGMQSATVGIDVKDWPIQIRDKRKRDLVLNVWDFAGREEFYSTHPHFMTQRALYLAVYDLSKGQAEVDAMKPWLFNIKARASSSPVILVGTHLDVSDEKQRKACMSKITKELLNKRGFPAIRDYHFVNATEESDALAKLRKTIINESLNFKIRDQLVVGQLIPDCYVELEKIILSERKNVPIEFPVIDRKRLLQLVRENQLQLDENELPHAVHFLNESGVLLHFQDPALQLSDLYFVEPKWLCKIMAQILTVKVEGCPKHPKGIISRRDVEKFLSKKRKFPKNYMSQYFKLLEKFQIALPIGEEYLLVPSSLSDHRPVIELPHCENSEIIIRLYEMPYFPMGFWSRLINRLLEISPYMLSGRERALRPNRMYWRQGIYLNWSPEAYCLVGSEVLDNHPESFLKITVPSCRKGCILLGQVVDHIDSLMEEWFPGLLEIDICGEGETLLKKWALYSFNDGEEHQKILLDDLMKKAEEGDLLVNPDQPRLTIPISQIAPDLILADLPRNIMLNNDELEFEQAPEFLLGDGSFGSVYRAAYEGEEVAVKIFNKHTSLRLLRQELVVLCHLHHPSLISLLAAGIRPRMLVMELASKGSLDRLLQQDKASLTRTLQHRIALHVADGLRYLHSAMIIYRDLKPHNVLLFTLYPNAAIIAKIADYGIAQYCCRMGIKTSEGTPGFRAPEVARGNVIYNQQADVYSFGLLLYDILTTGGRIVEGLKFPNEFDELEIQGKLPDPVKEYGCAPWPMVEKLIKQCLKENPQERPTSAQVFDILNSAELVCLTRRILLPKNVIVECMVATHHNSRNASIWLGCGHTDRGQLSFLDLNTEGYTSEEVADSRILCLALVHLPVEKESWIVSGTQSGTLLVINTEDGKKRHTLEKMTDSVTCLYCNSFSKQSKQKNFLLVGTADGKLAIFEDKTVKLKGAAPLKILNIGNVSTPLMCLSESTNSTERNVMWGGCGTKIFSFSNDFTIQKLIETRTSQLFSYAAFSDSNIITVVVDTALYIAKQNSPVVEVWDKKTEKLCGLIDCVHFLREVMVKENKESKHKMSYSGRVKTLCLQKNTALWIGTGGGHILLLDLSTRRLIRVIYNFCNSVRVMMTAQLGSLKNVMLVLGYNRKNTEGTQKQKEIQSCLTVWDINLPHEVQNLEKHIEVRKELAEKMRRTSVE
assay.notes: LRRK2 peptide substrate assay
Assay type: biochemical
particulars: Biotin-LRRKtide peptide substrate, ATP at Km; read-out: pIC50 in the LRRK2 peptide substrate assay (converted)

Field request: IC50 | item: Cn1cc(-c2ccc(OCc3ccc(F)cc3)c(C(=O)Nc3cnoc3)c2)cn1 [Example 134] ≤ 100 nM

What do you have for Cn1cc(-c2ccc(OCc3ccc(F)cc3F)c(C(=O)Nc3cccnc3)c2)cn1 [Example 116] ? ≤ 10 nM

Same lookup for O=C(Nc1cccnc1)c1cc(OC[C@H]2CCCN2)ccc1OCc1ccccc1 [Example 44] , please. ≤ 10 nM

Entry Cn1cc(-c2ccc(OCc3ccccc3)c(C(=O)Nc3ccnnc3)c2)cn1 [Example 73] please ≤ 10 nM

// query: O=C(Nc1cccnc1)c1cc(-c2ccn[nH]2)ccc1OCc1ccc(F)c(F)c1 [Example 107] ≤ 10 nM

Try O=C(Nc1cccnc1)c1cc(CN2CCOCC2)ccc1OCc1ccc(F)cc1 [Example 117] next. ≤ 100 nM

Now this one: COC(=O)NCc1ccc(OCc2ccc(F)cc2)c(C(=O)Nc2cccnc2)c1 [Example 118] ≤ 10 nM

For Cc1nocc1NC(=O)c1cc(-c2cnn(CCN3CCOCC3)c2)ccc1OCc1ccc(F)cc1 [Example 129] then? ≤ 100 nM

Now give it for O=C(Nc1cccnc1)c1cc(CN2CCOCC2)ccc1OCc1ccccc1 [Example 69] too. ≤ 100 nM

// repeat for Nc1cc(-c2ccc(OCc3ccccc3)c(C(=O)Nc3cccnc3)c2)ccn1 [Example 122] and report ≤ 100 nM

Follow-up entry: N#Cc1cccc(COc2ccc(Br)cc2C(=O)Nc2cccnc2)c1 [Example 15] ≤ 100 nM

Thanks! And CC(C)c1ccc(OCc2ccccc2)c(C(=O)Nc2cccnc2)c1 [Example 1] ? ≤ 100 nM

Note, next up: Cc1nocc1NC(=O)c1cc(-c2ccncc2)ccc1OCc1ccccc1 [Example 61] ≤ 10 nM

Please answer likewise for O=C(Nc1cccnc1)c1cc(Br)ccc1OCc1cccc(Cl)c1 [Example 13] ≤ 100 nM

Then this compound: O=C(Nc1cccnc1)c1cc(-c2cccnc2)ccc1OCc1ccccc1 [Example 101] ≤ 10 nM

Request: O=C(Nc1cccnc1)c1cc(-c2cnn(CCN3CCOCC3)c2)ccc1OCc1ccc(F)cc1 [Example 128] ≤ 10 nM

Query O=C(Nc1ccnnc1)c1cc(-c2ccncc2)ccc1OCc1ccccc1 [Example 74] next ≤ 10 nM

* * *

target: 6His-Tev-LRRK2 (1326-2527) (Homo sapiens, UniProt Q5S007)
Construct: A LRRK2 cDNA encoding residues 1326-2527 was received from Dundee University; made in house; host or cells: Spodoptera frugiperda (Sf9) insect cells, baculovirus
assay.notes: LRRK2 AlphaScreen desensitised protein substrate assay
Assay type: biochemical
particulars: excess of ATP present (2 mM ATP); read-out: pIC50 in the LRRK2 alphascreen desensitised protein substrate assay (converted)
Assign IC50 to each entry below.

Value lookup for IC50; key = `O=C(Nc1cccnc1)c1cc(CN2CCOCC2)ccc1OCc1ccccc1` ≤ 20 µM

Thanks! And `O=C(Nc1ccnnc1)c1cc(-c2ccncc2)ccc1OCc1ccc(F)c(F)c1` ? ≤ 20 µM

Would you kindly repeat that for `O=C(Nc1cccnc1)c1cc(Br)ccc1OCc1cccc(F)c1` ? > 25.1 µM

Same for `Cn1cc(-c2ccc(OCc3ccc(F)c(F)c3)c(C(=O)Nc3cccnc3)c2)cn1` ≤ 20 µM

Let us now turn to COC(=O)NCc1ccc(OCc2ccc(F)c(F)c2)c(C(=O)Nc2cccnc2)c1 [Example 120B] > 25.1 µM

Next compound up: `O=C(Nc1cccnc1)c1cc(-c2ccn[nH]2)ccc1OCc1ccc(F)c(F)c1` ≤ 20 µM

// repeat for `Cc1nocc1NC(=O)c1cc(-c2ccncc2)ccc1OCc1ccccc1` and report ≤ 20 µM

# iterate: `O=C(Nc1cccnc1)c1cc(C(=O)N2CCCCC2)ccc1OCc1ccccc1` ≤ 20 µM
